Reference for the values: paper PMC9743094

Tested on: differentiated conditionally immortalized PTECs (ciPTECs, OAT-1)
assay_summary: ciPTEC toxicity assay (PrestoBlue)
Assay type: cell-based, human
Positions of bridges follow the written chain, without caps; N, C: chain ends. Non-standard residues stand in square brackets, D forms with d. Residues, ends and D or L forms follow the SMILES beside them. *: point of attachment. X3 = c1ccc(Oc2ccc(CS*)cc2)cc1; Dab = NCC[C@H](N)C(=O)O; X1 = CC(C)CCCCS*; X4 = CCCCCCS*
readout_kind: ciPTEC Toxicity Index (relative to polymyxin B)
The response must contain the number and no unit.

Some solved entries appear below for comparison.
Entry CC(C)CCCCSSC[C@@H](N)C(=O)N[C@H](C(=O)N[C@@H](CCN)C(=O)N[C@H]1CCNC(=O)[C@H]([C@@H](C)O)NC(=O)[C@H](CCN)NC(=O)[C@H](CCN)NC(=O)[C@H](CC(C)C)NC(=O)[C@@H](Cc2ccccc2)NC(=O)[C@H](CCN)NC1=O)[C@@H](C)O [Compound 20b] (H-[dC](X1)T[Dab][Dab][Dab][dF]L[Dab][Dab]T; lactam 4-C) ; ciPTEC Toxicity Index (relative to polymyxin B) = 3.3

// ciPTEC Toxicity Index (relative to polymyxin B) lookup, compound = CCCCCCSSC[C@@H](N)C(=O)N[C@H](C(=O)N[C@@H](CCN)C(=O)N[C@H]1CCNC(=O)[C@H]([C@@H](C)O)NC(=O)[C@H](CCN)NC(=O)[C@H](CCN)NC(=O)[C@H](CC(C)C)NC(=O)[C@@H](Cc2ccccc2)NC(=O)[C@H](CCN)NC1=O)[C@@H](C)O [Compound 17b] (H-[dC](X4)T[Dab][Dab][Dab][dF]L[Dab][Dab]T; lactam 4-C) , result: 3.0

Turning now to a further record.
response.value for CC(C)C[C@@H]1NC(=O)[C@@H](Cc2ccccc2)NC(=O)[C@H](CCN)NC(=O)[C@@H](NC(=O)[C@H](CCN)NC(=O)[C@@H](NC(=O)[C@H](N)CSSCc2ccc(Oc3ccccc3)cc2)[C@@H](C)O)CCNC(=O)[C@H]([C@@H](C)O)NC(=O)[C@H](CCN)NC(=O)[C@H](CCN)NC1=O [Compound 37] (H-[dC](X3)T[Dab][Dab][Dab][dF]L[Dab][Dab]T; lactam 4-C) (field: ciPTEC Toxicity Index (relative to polymyxin B)) = 1.8
